Biological target: T1, NOV1401
T1 construct: It was amine-coupled to the chip in SPR, and used soluble and biotinylated in SET; also called anti-FXI/FXIa antibody NOV1401; anti-Factor XI/FXIa antibody NOV1401
T1 sequence (VH, as listed by the source, chain 1 of 2): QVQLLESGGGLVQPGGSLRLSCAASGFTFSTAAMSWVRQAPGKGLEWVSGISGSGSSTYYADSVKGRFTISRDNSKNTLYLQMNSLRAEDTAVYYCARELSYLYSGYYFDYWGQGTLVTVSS
T1 sequence (VL, as listed by the source, chain 2 of 2): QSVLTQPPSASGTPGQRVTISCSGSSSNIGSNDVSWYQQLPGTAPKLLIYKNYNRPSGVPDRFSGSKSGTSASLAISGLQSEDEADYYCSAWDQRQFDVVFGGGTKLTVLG
Assay: Solution equilibrium titration (SET), 1:1 fit, average
measurement.type: Kd (nM)

binder="IDT3 (Fab, V domains shown, Fab; also called anti-NOV1401 Fab IDT3) VH: QVQLVESGGGLVKPGGSLRLSCAASGFTFQSAAVHWVRQAPGKGLEWVGRIKSKADGGTTDYAAPVKGRFTISRDDSKNTLYLQMNSLKTEDTAVYYCARDSPSISSYSIPYFSGMDVWGQGTLVTVSS VL: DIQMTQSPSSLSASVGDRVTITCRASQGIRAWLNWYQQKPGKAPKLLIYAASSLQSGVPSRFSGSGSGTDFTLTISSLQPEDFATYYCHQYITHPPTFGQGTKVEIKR" measurement_type=Kd reported_result=0.1
